Reported pIC50 by item:
# assayNotes: Inhibition of His-tagged XIAP BIR2-3 (125 to 356 residues) C202A/C213G double mutant (unknown origin) using fluorescein labeled SMAC peptide as substrate after 60 mins by HTRF assay
# Design: species or system Homo sapiens
Worth noting: pIC50 values are minus log10 of concentrations stated in mol/L.

Illustrative cases are given below, each with its answer.
CN[C@@H](C)C(=O)N[C@H](C(=O)N1C[C@@H](c2ccc(C[C@H](NC(=O)[C@@H](NC(=O)[C@H](C)NC)C(C)(C)SCC(=O)N(C)C[C@@H](O)CO)C(=O)N[C@@H]3CCCc4ccccc43)cc2)C[C@H]1C(=O)N[C@@H]1CCCc2ccccc21)C(C)(C)C: 7.91
CN[C@@H](C)C(=O)N[C@H](C(=O)N1C[C@@H](c2ccc(CC(NC(=O)[C@@H](NC(=O)[C@H](C)NC)C(C)(C)SCC(=O)NC(CO)CO)C(=O)N[C@@H]3CCCc4ccccc43)cc2)C[C@H]1C(=O)N[C@@H]1CCCc2ccccc21)C(C)(C)C (some centres undefined): 8.09
CN[C@@H](C)C(=O)N[C@H](C(=O)N[C@@H](Cc1ccc([C@H]2C[C@@H](C(=O)N[C@@H]3CCCc4ccccc43)N(C(=O)[C@@H](NC(=O)[C@H](C)NC)C(C)(C)C)C2)cc1)C(=O)N[C@@H]1CCCc2ccccc21)C(C)(C)C: 8.17

Alright, here's another compound for you.
Q. Request the reported pIC50 associated with CN[C@@H](C)C(=O)N[C@H](C(=O)NC(Cc1ccc(NC(=O)c2ccc(C(=O)NC3C[C@@H](C(=O)N[C@@H]4CCCc5ccccc54)N(C(=O)[C@@H](NC(=O)[C@H](C)NC)C(C)(C)C)C3)cc2)cc1)C(=O)N[C@@H]1CCCc2ccccc21)C(C)(C)C (some centres undefined)
A. 8.02
